Target: HPV16 E7 protein (Human papillomavirus type 16)
Construct: endogenous in cells; host or cells: CaSki cells (HPV16-positive cervical carcinoma)
Format: cell-based
Conditions: CaSki cells; adjusted degradation, CHX steady state set to 100% degradation
We begin with a simple list: items and their reported % Dad.
Respond with the bare value in %.

[
  {
    "compound": "CC(=O)Nc1ccc2c(c1)C(=O)N(Cc1ccc(C)cc1)[C@@H](c1ccc(C(F)(F)F)cc1)[C@@H]2C(=O)Nc1cccc(N2CCN(C)CC2)c1 (relative stereo) [OC970]",
    "uom": "%",
    "% Dad": 20
  },
  {
    "compound": "Cc1ccc(CN2C(=O)c3ccccc3C(C(=O)NCCN3CCCC3)C2c2ccc(Cl)cc2)cc1 (stereo not shown) [OC251]",
    "uom": "%",
    "% Dad": 1
  },
  {
    "compound": "Cc1ccc(C2C(C(=O)NCCN(C)C)c3ccccc3C(=O)N2Cc2ccc(C(F)(F)F)cc2)cc1 (stereo not shown) [OC379]",
    "uom": "%",
    "% Dad": 26
  }
]

INPUT: Reported % Dad, compound Cc1ccc(CN2C(=O)c3ccccc3C(C(=O)Nc3cccc(N4CCN(C)CC4)c3)C2c2ccc(Br)cc2)cc1 (stereo not shown) [OC247] : ____
OUTPUT: 6

----------
Experiment: Pharmacokinetics of OC246 after single oral administration
Format: in vivo, female NMRI mice
Details: female, NMRI, mouse, blood; single oral 50 mg/kg
metric name: half-life (h)
Respond with the bare value in h.

INPUT: Reported half-life, molecule `Cc1ccc(CN2C(=O)c3ccccc3[C@H](C(=O)Nc3cccc(N4CCN(C)CC4)c3)[C@@H]2c2ccc(C(F)(F)F)cc2)cc1` : ____
OUTPUT: 2.25

----------
Test: Pharmacokinetics of VSP034 and VSP035 after oral administration of a liposomal formulation
Type: in vivo, female Sprague-Dawley rats
Settings: female, Sprague-Dawley, rat, in vivo, po, 100 mg/kg, CL/F, Median
metric name: CL/F (mL/min/kg)
Respond with the bare value in mL/min/kg.

INPUT: Reported CL/F, compound CN1CCC(CN2C(=O)c3ccccc3[C@@H](C(=O)Nc3cccc(N4CCN(C)CC4)c3)[C@@H]2c2ccc(C(F)(F)F)cc2)CC1 [VSP034] : ____
OUTPUT: 2.72

----------
Experiment: Pharmacokinetics of OC246 after single oral administration
Type: in vivo, female NMRI mice
Details: female, NMRI, mouse, blood; single oral 50 mg/kg; mean; read-out: Clast
metric name: concentration at 24 h (ng/mL)
Respond with the bare value in ng/mL.

INPUT: Reported concentration at 24 h, compound Cc1ccc(CN2C(=O)c3ccccc3[C@H](C(=O)Nc3cccc(N4CCN(C)CC4)c3)[C@@H]2c2ccc(C(F)(F)F)cc2)cc1 [OC246] : ____
OUTPUT: 5.18

----------
Tested on: CaSki (ATCC CRM-CRL-1550)
Test: Monolayer assay using Sulphorhodamine B (SRB) staining, CaSki
Type: cell-based
Conditions: Homo sapiens, Ca-Ski; SRB assay from Caski cells; “0” = no activity detected with the concentrations tested; read-out: EC50 mean
metric name: pEC50
pEC50 here is simply -log10 of the concentration when that concentration is written in mol/L.

# annotated cases, reported pEC50 shown
[
  {
    "molecule": "CN(C)CCNC(=O)C1c2ccccc2C(=O)N(Cc2ccc(N)cc2)C1c1ccc(C(F)(F)F)cc1 (centres unmarked)",
    "meas value": 4.94
  },
  {
    "molecule": "Cc1ccc(C2C(C(=O)NCCN(C)C)c3ccccc3C(=O)N2Cc2ccc(C(F)(F)F)cc2)cc1 (centres unmarked)",
    "meas value": 4.93
  }
]

INPUT: Provide the documented pEC50 with CaSki (ATCC CRM-CRL-1550) as the system for CN(C)CCNC(=O)C1c2ccccc2C(=O)N(Cc2ccc(N(C)C)cc2)C1c1ccc(C(F)(F)F)cc1 (centres unmarked)
OUTPUT: 5.64

INPUT: Another: Cc1ccc(CN2C(=O)c3ccccc3C(C(=O)NCCN(C)C)C2c2ccc(C(F)(F)F)cc2)cc1 (centres unmarked)
OUTPUT: 5.17

INPUT: Another: CN(C)CCNC(=O)C1c2ccccc2C(=O)N(Cc2ccc(C(F)(F)F)cc2)C1c1ccc(C(F)(F)F)cc1 (centres unmarked)
OUTPUT: 5.25

----------
Target: HPV16 E7 protein (Human papillomavirus type 16, UniProt P03129)
Construct: endogenous in cells; host or cells: CaSki cells (HPV16-positive cervical carcinoma)
Sequence (P03129 whole entry): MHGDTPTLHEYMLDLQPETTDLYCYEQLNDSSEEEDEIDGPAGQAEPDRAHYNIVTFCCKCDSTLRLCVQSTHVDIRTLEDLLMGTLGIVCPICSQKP
Assay type: cell-based
Settings: CaSki cells; adjusted degradation, CHX steady state set to 100% degradation
metric name: % Dad
A complete answer gives the number followed by the unit.

[
  {
    "molecule": "CN1CCN(c2cccc(NC(=O)[C@@H]3c4ccccc4C(=O)N(Cc4ccncc4)[C@H]3c3ccc(C(F)(F)F)cc3)c2)CC1 (relative stereo) [OC975]",
    "% Dad": "67%"
  }
]

INPUT: Reported % Dad, molecule CN(C)CCNC(=O)C1c2ccccc2C(=O)N(Cc2ccc(N)cc2)C1c1ccc(C(F)(F)F)cc1 (centres unmarked) [OC380] : ____
OUTPUT: 3%

INPUT: Another: COCCNC(=O)C1c2ccccc2C(=O)N(Cc2ccc(C)cc2)C1c1ccc(Cl)cc1 (centres unmarked) [OC252]
OUTPUT: 0%

INPUT: Another: Cc1ccc(CN2C(=O)c3ccccc3C(C(=O)NCCN(C)C)C2c2ccc(C(F)(F)F)nc2)cc1 (centres unmarked) [OC381]
OUTPUT: 41%

INPUT: Another: Cc1ccc(CN2C(=O)c3ccccc3C(C(=O)N3CCN(C=O)CC3)C2c2ccc(Cl)cc2)cc1 (centres unmarked) [OC258]
OUTPUT: 0%

INPUT: Another: Cc1ccc(CN2C(=O)c3ccccc3[C@@H](C(=O)Nc3cccc(N4CCOCC4)c3)[C@@H]2c2ccc(C(F)(F)F)cc2)cc1 (relative stereo) [OC973]
OUTPUT: 20%

----------
Test: Pharmacokinetics of VSP034 and VSP035 after oral administration of a liposomal formulation
Assay type: in vivo, female Sprague-Dawley rats
Settings: female, Sprague-Dawley, rat, in vivo, po, 100 mg/kg, Cmax, Mean
metric name: Cmax (ng/mL)
Respond with the bare value in ng/mL.

[
  {
    "chem smiles": "CN1CCC(CN2C(=O)c3ccccc3[C@@H](C(=O)Nc3cccc(N4CCN(C)CC4)c3)[C@@H]2c2ccc(C(F)(F)F)cc2)CC1",
    "meas value": 89
  }
]

# evaluate next
INPUT: Reported Cmax, molecule `CN1CCC(CN2C(=O)c3ccccc3[C@H](C(=O)Nc3cccc(N4CCN(C)CC4)c3)[C@H]2c2ccc(C(F)(F)F)cc2)CC1` : ____
OUTPUT: 246

----------
Experiment: Pharmacokinetics of OC246 after single oral administration
Type: in vivo, female NMRI mice
Details: female, NMRI, mouse, blood; single oral 50 mg/kg; mean
metric name: Cmax (ng/mL)
Respond with the bare value in ng/mL.

INPUT: Reported Cmax, compound `Cc1ccc(CN2C(=O)c3ccccc3[C@H](C(=O)Nc3cccc(N4CCN(C)CC4)c3)[C@@H]2c2ccc(C(F)(F)F)cc2)cc1` : ____
OUTPUT: 1740

----------
Tested on: SARS-CoV-2 isolate BetaCov/Belgium/GHB-03021/2020
Experiment: microbe, parasite or virus in culture
Assay type: cell-based
Details: 1.25 μM (non-toxic compound concentration), n4
We begin with a simple list: items and their reported % Inhibition.
Respond with the bare value in %.

[
  {
    "molecule": "c1c2c(cc3c1OCO3)-c1cc3ccc4c(c3c[n+]1CC2)OCO4 [Coptisin, reference compound]",
    "meas value": 98.97
  }
]

INPUT: Reported % Inhibition, molecule CS(=O)(=O)O.Cc1c(O)cccc1C(=O)N[C@@H](CSc1ccccc1)[C@H](O)CN1C[C@H]2CCCC[C@H]2C[C@H]1C(=O)NC(C)(C)C [Neifinavir-Mesylat, reference compound] : ____
OUTPUT: 9.49

INPUT: Another: Nc1ccc(-c2ccc3ncc4ccc(=O)n(-c5cccc(C(F)(F)F)c5)c4c3c2)cn1 [Torin2, reference compound]
OUTPUT: 1.46

INPUT: Another: Nc1ncnc2n[nH]c(Nc3ccc(F)cc3)c12 [CGP57380, reference compound]
OUTPUT: 17.71

INPUT: Another: COc1ccc2cc1Oc1ccc(cc1)C[C@H]1c3c(cc4c(c3Oc3cc5c(cc3OC)CCN(C)[C@@H]5C2)OCO4)CCN1C [Cepharantin, reference compound]
OUTPUT: 2.32

INPUT: Another: CCC(=O)N1CCN(c2ccc(-n3c(=O)ccc4cnc5ccc(-c6cnc7ccccc7c6)cc5c43)cc2C(F)(F)F)CC1 [Torin 1, reference compound]
OUTPUT: 7.00

----------
Test system: CaSki cells
Assay: Cell cycle analysis using Propidium-Iodide staining (flow cytometry)
Assay type: cell-based, human
Details: 48 hour incubation, 10 μM, no treatment 15.0
We begin with a simple list: items and their reported A*/10 μM (apoptosis as measured from total SUB G1 content).
A complete answer gives the number followed by the unit.

[
  {
    "compound": "Cc1ccc(CN2C(=O)c3ccccc3[C@@H](C(=O)Nc3cccc(N4CCOCC4)c3)[C@@H]2c2ccc(C(F)(F)F)cc2)cc1 (relative stereo)",
    "meas value": "13.0%"
  },
  {
    "compound": "Cc1ccc(CN2C(=O)c3ccccc3[C@@H](C(=O)Nc3cccc(N4CCN(C)CC4)c3)[C@@H]2c2ccc(C(F)(F)F)nc2)cc1 (relative stereo)",
    "meas value": "11.6%"
  },
  {
    "compound": "Cc1ccc(CN2C(=O)c3ccccc3[C@H](C(=O)Nc3cccc(N4CCN(C)CC4)c3)[C@@H]2c2ccc(C(F)(F)F)cc2)cc1",
    "meas value": "89.4%"
  },
  {
    "compound": "CN1CCN(c2cccc(NC(=O)[C@@H]3c4ccccc4C(=O)N(Cc4cccnc4)[C@H]3c3ccc(C(F)(F)F)cc3)c2)CC1 (relative stereo)",
    "meas value": "12.8%"
  },
  {
    "compound": "CN1CCN(c2cccc(NC(=O)[C@@H]3c4ccccc4C(=O)N(Cc4ccncc4)[C@H]3c3ccc(C(F)(F)F)cc3)c2)CC1 (relative stereo)",
    "meas value": "11.8%"
  }
]

INPUT: Reported A*/10 μM (apoptosis as measured from total SUB G1 content), compound Cc1ccc(CN2C(=O)c3ccccc3[C@@H](C(=O)Nc3ccc(N4CCN(C)CC4)cc3)[C@@H]2c2ccc(C(F)(F)F)cc2)cc1 (relative stereo) : ____
OUTPUT: 13.5%
